Each record here notes measured IC50.
# System: HeLa
# ASSAY_NOTES: In vitro cytotoxicity against HeLa human cervical carcinoma cell line
# Type: functional, cell-based
QUANTITY: IC50 (µM)

                               input_smiles  quantity  measurement_units  censoring_operator  readout_number
0  O=c1[nH]c(=O)n([C@H]2S[C@@H](CO)[C@H](O)[C@@H]2O)cc1F      IC50                 µM                   >             100
1  Nc1nc(=O)n([C@H]2S[C@@H](CO)[C@H](O)[C@@H]2O)cc1F      IC50                 µM                   =            95.9
2  Cc1cn([C@H]2S[C@@H](CO)[C@H](O)[C@@H]2O)c(=O)[nH]c1=O      IC50                 µM                   =             100
3  Nc1nc(S)c2ncn([C@H]3S[C@@H](CO)[C@H](O)[C@@H]3O)c2n1      IC50                 µM                   >             100

----------
# Test system: U-87 MG
# ASSAY_NOTES: In vitro cytotoxicity against HTB14 human glioma cell line
# Format: functional, cell-based, U-87MG ATCC
QUANTITY: IC50

>>> print(df.to_string())
                               input_smiles  quantity   result
0  O=c1[nH]c(=O)n([C@H]2S[C@@H](CO)[C@H](O)[C@@H]2O)cc1F      IC50  41.5 µM
1  Nc1nc(S)c2ncn([C@H]3S[C@@H](CO)[C@H](O)[C@@H]3O)c2n1      IC50  62.1 µM
2  Nc1nc(=O)n([C@H]2S[C@@H](CO)[C@H](O)[C@@H]2O)cc1F      IC50  83.3 µM
3  Cc1cn([C@H]2S[C@@H](CO)[C@H](O)[C@@H]2O)c(=O)[nH]c1=O      IC50  67.8 µM

----------
# System: NB-4
# ASSAY_NOTES: In vitro cytotoxicity against NB4 leukemia cell line
# Type: functional, cell-based
# ASSAY_CONDITIONS: Homo sapiens
pIC50: −log10 of the molar value.
QUANTITY: pIC50

>>> df
                               input_smiles  target_or_system  result
0  O=c1[nH]c(=O)n([C@H]2S[C@@H](CO)[C@H](O)[C@@H]2O)cc1F              NB-4  < 4.00
1  Cc1cn([C@H]2S[C@@H](CO)[C@H](O)[C@@H]2O)c(=O)[nH]c1=O              NB-4  < 4.00
2  Nc1nc(S)c2ncn([C@H]3S[C@@H](CO)[C@H](O)[C@@H]3O)c2n1              NB-4  < 4.00
